Assignment: determine reported IC50 for the given compounds.
# EXPERIMENTAL TARGET: Human N-terminal recombinant Hsp90 protein (region of amino acids 9 to 236) (Homo sapiens, UniProt P07900)
# Construct: Human N-terminal recombinant Hsp90 protein (region of amino acids 9 to 236)
# EXPERIMENT SUMMARY: Hsp90 protein binding assay (competition with biotinylated Radicicol, time-resolved fluorescence)
# CONDITION SET: immobilized Hsp90, biotinylated Radicicol 0.1 μmol/L, 24° C.; read-out: concentration inhibiting the binding of biotinylated Radicicol to the Hsp90 protein by 50% or more
# Experimental: Hsp90 Protein Binding Assay Human N-terminal recombinant Hsp90 protein (region of amino acids 9 to 236) prepared according to the method described in “Cell”, 1997, Vol. 89, p. […] Enhancement solution (Wallac Oy) was added thereto in an amount of 100 μL/well and color developing reaction was carried out at room temperature for 5 minutes, followed by measurement of time-resolved fluorescence (excitation wavelength: 340 nm, measurement wavelength: 615 nm) using Multilabel Counter (ARVO 1420, Wallac Oy). […]

Q. IC50 lookup needed for COC1C=CC=C(C)C(=O)Nc2cccc(c2O)C(OC)C(C)CC(OC)C(OC)C(C)C=C(C)C1OC(N)=O (centres unmarked) [Compound 2] , thanks.
A. ≤ 10 µM

Q. Note, next up: COC1/C=C\C=C(/C)C(=O)Nc2cc(O)cc(c2O)C(OC)C(C)CC(OC)C(OC)C(C)/C=C(\C)C1OC(N)=O (centres unmarked) [Compound 1]
A. ≤ 10 µM
